measured on: Prostaglandin E2 receptor EP3 subtype (Mus musculus, UniProt P30557)
Sequence (P30557 whole entry): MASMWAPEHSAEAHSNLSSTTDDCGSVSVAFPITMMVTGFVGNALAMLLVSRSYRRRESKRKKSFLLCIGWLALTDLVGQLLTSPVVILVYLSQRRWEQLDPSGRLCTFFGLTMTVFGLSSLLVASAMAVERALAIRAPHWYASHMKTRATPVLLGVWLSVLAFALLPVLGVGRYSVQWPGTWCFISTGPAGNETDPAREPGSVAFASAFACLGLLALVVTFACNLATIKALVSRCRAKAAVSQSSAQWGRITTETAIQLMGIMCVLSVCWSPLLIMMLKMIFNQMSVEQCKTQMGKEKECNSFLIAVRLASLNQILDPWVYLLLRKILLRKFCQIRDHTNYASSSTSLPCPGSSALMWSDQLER
assay comment: Evaluated for its competitive binding affinity towards mouse Prostanoid EP3 receptor in CHO cells expressing prostanoid receptor
measured parameter: Ki (nM)
Note: unit nM is implicit; provide only the numeric part.

For orientation, consider the following solved cases.
{"columns": ["query smiles", "measured on", "measured parameter", "measurement"],
 "data": [
  ["CCCCC[C@H](O)/C=C/[C@H]1[C@H](O)CC(=O)[C@@H]1SCCCOCC(=O)O", "Prostaglandin E2 receptor EP3 subtype (Mus musculus, UniProt P30557)", "Ki", 11],
  ["CCCCC[C@H](O)/C=C/[C@H]1[C@H](O)CC(=O)[C@@H]1SCCCCCC(=O)O", "Prostaglandin E2 receptor EP3 subtype (Mus musculus, UniProt P30557)", "Ki", 4.5],
  ["COCCc1cccc(C[C@H](O)/C=C/[C@H]2[C@H](O)CC(=O)[C@@H]2SCCCSCC(=O)O)c1", "Prostaglandin E2 receptor EP3 subtype (Mus musculus, UniProt P30557)", "Ki", 3000]
]}

// Ki lookup, key: "Cc1ccc(C[C@H](O)/C=C/[C@H]2[C@H](O)CC(=O)[C@@H]2SCCCSCC(=O)O)cc1"
72
